Tested on: freshly isolated rat hepatocytes
Protocol Summary: Uptake into freshly isolated rat hepatocytes
Cond: 100 μmol Gd/L, 10 min, 37° C., relative to RC1 (Gd-EOB-DTPA)
For each record, write down the corresponding Uptake rat hepatocytes.

Sample CCOCCOCCOc1ccc(CCC[C@H](C(=O)O)N2CCN([C@@H](CO)C(=O)[O-])CCN([C@@H](CO)C(=O)[O-])CCN([C@@H](CO)C(=O)[O-])CC2)cc1.[Gd+3] — what was its Uptake rat hepatocytes?
75 % of RC1

Sample CCCOc1ccc(CC(C(=O)O)N2CCN(CC(=O)[O-])CCN(CC(=O)[O-])CCN(CC(=O)[O-])CC2)cc1.[Gd+3] (stereo not drawn) — what was its Uptake rat hepatocytes?
77 % of RC1

Sample CCOCCOCCOc1ccc(CC(C(=O)O)N2CCN(CC(=O)[O-])CCN(C(C)C(=O)[O-])CCN(CC(=O)[O-])CC2)cc1.[Gd+3] (single isomer, unassigned) [Example 5] — what was its Uptake rat hepatocytes?
28 % of RC1

Sample CCOc1ccc(CCCC[C@@H](C(=O)O)N2CCN(CC(=O)[O-])CCN(CC(=O)[O-])CCN(CC(=O)[O-])CC2)cc1.[Gd+3] — what was its Uptake rat hepatocytes?
69 % of RC1

Sample CCOCCOCCOCCOc1ccc(CC(C(=O)O)N2CCN(CC(=O)[O-])CCN(C(CO)C(=O)[O-])CCN(CC(=O)[O-])CC2)cc1.[Gd+3] (stereo not drawn) — what was its Uptake rat hepatocytes?
44 % of RC1

Sample CCCCOc1cccc(CCC[C@@H](C(=O)O)N2CCN([C@@H](CO)C(=O)[O-])CCN([C@@H](CO)C(=O)[O-])CCN([C@@H](CO)C(=O)[O-])CC2)c1.[Gd+3] — what was its Uptake rat hepatocytes?
98 % of RC1

Sample CCOCCOCCOc1ccc(CC(C(=O)O)N2CCN(C(CO)C(=O)[O-])CCN(C(CO)C(=O)[O-])CCN(C(CO)C(=O)[O-])CC2)cc1.[Gd+3] (stereo not drawn) — what was its Uptake rat hepatocytes?
41 % of RC1

Sample O=C([O-])CN1CCN(C(Cc2ccc(OCC(F)(F)C(F)F)cc2)C(=O)O)CCN(CC(=O)[O-])CCN([C@@H](CO)C(=O)[O-])CC1.[Gd+3] (mixture of isomers) — what was its Uptake rat hepatocytes?
82 % of RC1

Sample CCOCCOCCOc1ccc(CC(C(=O)O)N2CCN(C(CCO)C(=O)[O-])CCN(C(CCO)C(=O)[O-])CCN(C(CCO)C(=O)[O-])CC2)cc1.[Gd+3] (stereo not drawn) — what was its Uptake rat hepatocytes?
26 % of RC1

Sample CCOc1ccc(CC(CN(CCN(CC(=O)[O-])CC(=O)[O-])CC(=O)[O-])N(CC(=O)[O-])CC(=O)[O-])cc1.[Gd+3].[Na+].[Na+] (stereo not drawn) [RC1, gadoxetate disodium, reference compound] — what was its Uptake rat hepatocytes?
100 % of RC1

Sample CCOCCOc1ccc(CC(C(=O)O)N2CCN(CC(=O)[O-])CCN(C(COC)C(=O)[O-])CCN(CC(=O)[O-])CC2)cc1.[Gd+3] (stereo not drawn) — what was its Uptake rat hepatocytes?
62 % of RC1

Sample CCCC(C(=O)[O-])N1CCN(CC(=O)[O-])CCN(C(Cc2ccc(OCC)cc2)C(=O)O)CCN(CC(=O)[O-])CC1.[Gd+3] (stereo not drawn) [Example 29] — what was its Uptake rat hepatocytes?
87 % of RC1

Sample CCOCCOCCOc1ccc(CCC[C@@H](C(=O)O)N2CCN([C@H](CO)C(=O)[O-])CCN([C@H](CO)C(=O)[O-])CCN([C@H](CO)C(=O)[O-])CC2)cc1.[Gd+3] — what was its Uptake rat hepatocytes?
71 % of RC1

Sample CCOCCOCCOc1ccc(CCCC(C(=O)O)N2CCN(C(CO)C(=O)[O-])CCN(C(CO)C(=O)[O-])CCN(C(CO)C(=O)[O-])CC2)cc1.[Gd+3] (stereo not drawn) — what was its Uptake rat hepatocytes?
71 % of RC1

Sample CCOCCOCCOc1ccc(CCC[C@H](C(=O)O)N2CCN([C@H](CO)C(=O)[O-])CCN([C@H](CO)C(=O)[O-])CCN([C@H](CO)C(=O)[O-])CC2)cc1.[Gd+3] — what was its Uptake rat hepatocytes?
92 % of RC1

Sample O=C([O-])CN1CCN(CC(=O)[O-])CCN([C@H](Cc2ccc(OCC(F)(F)F)cc2)C(=O)O)CCN(CC(=O)[O-])CC1.[Gd+3] — what was its Uptake rat hepatocytes?
55 % of RC1

Sample CCOCCOc1ccc(CC(C(=O)O)N2CCN(CC(=O)[O-])CCN(C(CC)C(=O)[O-])CCN(CC(=O)[O-])CC2)cc1.[Gd+3] (single isomer, unassigned) [Example 8] — what was its Uptake rat hepatocytes?
83 % of RC1

Sample CCCOc1ccc(CCC(C(=O)O)N2CCN(CC(=O)[O-])CCN(CC(=O)[O-])CCN(CC(=O)[O-])CC2)cc1.[Gd+3] (stereo not drawn) — what was its Uptake rat hepatocytes?
40 % of RC1
